log10 of IC50 reference
target: wild-type HIV-1 protease (Human immunodeficiency virus type 1 group M subtype B); assay: Assay for inhibition of microbial expressed HIV protease; assay type: biochemical; settings: wild-type HIV-1 protease expressed in E. coli, peptide substrate, pH 5.5; read-out: Enzyme Inhibition - IC50
Quick note: numbers are log10 of IC50, with nM as the unit.

Below are worked cases with known answers.
CCCN([C@H](CO)CCC[C@H](CC)NC(=O)[C@H](Cc1cccc2ccccc12)NC(=O)OC)S(=O)(=O)c1ccc(CO)cc1 -0.25
CC[C@@H](CCC[C@@H](CO)N(CCC(C)C)S(=O)(=O)c1ccc(N)cc1)NC(=O)[C@@H](N)C(c1ccccc1)c1ccccc1 -2.00
COC(=O)N[C@@H](Cc1cccc2ccccc12)C(=O)N[C@H](CCC[C@@H](CO)N(CCC(C)C)S(=O)(=O)c1ccc(N)cc1)C1CC1 -0.45
COC(=O)N[C@H](C(=O)N[C@H](C)CCC[C@@H](CO)N(CCC(C)C)S(=O)(=O)c1ccc(CO)cc1)C(c1ccccc1)c1ccccc1 -0.54
COC(=O)N[C@H](C(=O)N[C@@H](C)CCC[C@@H](CO)N(C(C)C)S(=O)(=O)c1ccc(N)cc1)C(c1cccc(F)c1)c1cccc(F)c1 -2.00

Alright, here's another compound for you.
Exercise: Need log10 of IC50 of "COC(=O)N[C@H](C(=O)N[C@H](CCC[C@@H](CO)N(CCC(C)C)S(=O)(=O)c1ccc([C@H](C)O)cc1)C1CC1)C(c1ccc(F)cc1)c1ccc(F)cc1" , thanks.
Key: -1.96

---

target: wild-type HIV-1 protease (Human immunodeficiency virus type 1 group M subtype B); assay: Assay for inhibition of microbial expressed HIV protease; format: biochemical; details: wild-type HIV-1 protease expressed in E. coli, peptide substrate, pH 5.5; read-out: Enzyme Inhibition - IC50
parameter: log10 of IC50 (log10 of the value in nM)
Recorded IC50 (log10, nM)

Study these solved cases before continuing.
compound	observed
COC(=O)N[C@H](C(=O)N[C@H](CCC[C@@H](CO)N(CC(C)C)S(=O)(=O)c1ccc(CO)cc1)C(F)(F)F)C(c1ccccc1)c1ccccc1	-2.00
COC(=O)N[C@H](C(=O)NC(CO)CCCC(CO)N(CCC(C)C)S(=O)(=O)c1ccc(N)cc1)C(c1ccccc1)c1ccccc1 (single isomer, unassigned) [Example M1-7A]	-0.46
COC(=O)NC(C(=O)N[C@@H](C)CCC[C@@H](CO)N(C(C)C)S(=O)(=O)c1ccc(CO)cc1)C(c1cccc(F)c1)c1cccc(F)c1 (stereo partly drawn)	-2.00
COC(=O)N[C@H](C(=O)N[C@H](CCC[C@@H](CO)N(CC(C)C)S(=O)(=O)c1ccc(CO)cc1)C1CC1)C(c1ccc(F)cc1)c1ccc(F)cc1	-1.60

Exercise: What log10 of IC50 value was documented for this compound, "CC(C)N([C@H](CO)CCCC(C)(C)NC(=O)[C@@H](N)C(c1ccccc1)c1ccccc1)S(=O)(=O)c1ccc(N)cc1" ?
Key: -1.74

Exercise: Queued: "COC(=O)N[C@H](C(=O)N[C@H](CCC[C@@H](CO)N(C(C)C)S(=O)(=O)c1ccc(CO)cc1)C(F)(F)F)C(c1ccccc1)c1ccccc1"
Key: -1.82

Exercise: And "COC(=O)N[C@@H](Cc1ccccc1Cl)C(=O)N[C@H](CCC[C@@H](CO)N(CCC(C)C)S(=O)(=O)c1ccc(CO)cc1)C1CC1" ?
Key: -0.74

Exercise: Another compound to check: "CCCN([C@H](CO)CCC[C@H](C)NC(=O)[C@@H](NC(=O)OC)C(c1ccccc1)c1ccccc1)S(=O)(=O)c1ccc(N)cc1"
Key: -1.55

Exercise: Query "COC(=O)N[C@H](C(=O)N[C@H](CCC[C@@H](CO)N(CC(C)C)S(=O)(=O)c1ccc2ncsc2c1)C1CC1)C(c1ccccc1)c1ccccc1" next
Key: -0.45

Exercise: And the next one, "CCN([C@H](CO)CCC[C@H](C)NC(=O)[C@@H](NC(=O)OC)C(c1ccccc1)c1ccccc1)S(=O)(=O)c1ccc(CO)cc1" ?
Key: -1.30

Exercise: Same question, "COC(=O)N[C@H](C(=O)N[C@H](CCC[C@@H](CO)N(C)S(=O)(=O)c1ccc(N)cc1)C1CC1)C(c1ccccc1)c1ccccc1" this time
Key: 0.51

Exercise: And the next one, "COC(=O)N[C@H](C(=O)N[C@@H](C)CCC[C@@H](CO)N(CCCF)S(=O)(=O)c1ccc(N)cc1)C(c1ccccc1)c1ccccc1" ?
Key: -1.26
